Assay: A CellTox Green Cytotoxicity Assay to monitor cytotoxicity in HepG2 cells - 40 hour (AID 1224879); also: nearly all actives have a fitted effect of over 40% in size
Conditions: CellTox Green fluorescence; series mostly up to 76.8 µM
Results filed as inconclusive are left out. Calls of active or inactive are those of the source. Calls follow the shape of the dose curve; as a rule, active = well fitted activation curve with a large enough effect in the repeat runs; inconclusive = weak or mixed curves; inactive = flat fitted curve, though single readings scatter.
Respond only with the outcome that fits, drawn from active, inactive

Worked examples follow.
compound=O=C(NS(=O)(=O)/C=C/c1ccccc1)c1ccc(F)cc1Cl group_label=active
compound=CCN(Cc1cccc(S(=O)(=O)O)c1)c1ccc(C(=C2C=CC(=[N+](CC)Cc3cccc(S(=O)(=O)O)c3)C=C2)c2ccccc2S(=O)(=O)[O-])cc1 group_label=inactive
compound=CC(C)COC(=O)COc1cc(Cl)c(Cl)cc1Cl group_label=inactive
compound="CC(C)C(O)C(C)(C)CO (configuration not stated)" group_label=inactive
compound=COc1cc(S(=O)(=O)Nc2ccccc2)c(OC)cc1N group_label=inactive

Record lookup: outcome of this test for CC[C@@H](CO)NCCN[C@@H](CC)CO ?
inactive

Record lookup: outcome of this test for COC1CCC=CO1 (configuration not stated) ?
inactive
